Tested on: hDMFa myofibroblast cells
Test: Myofibroblast cytotoxicity, MTS cell viability assay
Conditions: serum-free media with inhibitor 8-12 hours, MTS cell viability, inhibition normalized as percentage of negative control
*1 amine or outer side, *2 acyl side, *3 side chain or, on linkers, in order; H or OH if unused. Where a SMILES comes first, the peptide text is derived from it. Bridges are numbered along the chain shown (N, C = ends). [ ]: non-standard residue; d: D form. The star is where a group is joined. pTerphenylCO(4''-OnC5H11) = CCCCCOc1ccc(-c2ccc(-c3ccc(C(=O)*)cc3)cc2)cc1; Orn(4R-OH,5R-OH) = O=C([C@H](C[C@@H](O)[C@@H](O)N[*:3])N[*:1])[*:2]; hTyr(3S-OH,4S-OH) = N[C@H](C(=O)O)[C@H](O)[C@@H](O)c1ccc(O)cc1; Pro(3S-OH,4S-Me) = C[C@H]1CN[C@H](C(=O)O)[C@H]1O; Hyp = O=C(O)[C@@H]1C[C@@H](O)CN1
EXPERIMENTAL_ENDPOINT: Compound Myofibroblast Cytotoxicity Activity

COMPOUND	EXPERIMENTAL_RESULT
Cc1cc(O)cc(C(C)C)c1	+
Cc1ccc([C@@H]2O[C@H](CO)[C@@H](O)[C@H](O)[C@H]2O)cc1Cc1ccc(-c2ccc(F)cc2)s1	+++++
CCCCCOc1ccc(-c2ccc(-c3ccc(C(=O)N[C@H]4C[C@@H](O)[C@@H](O)NC(=O)[C@@H]5[C@@H](O)[C@@H](C)CN5C(=O)[C@H]([C@@H](C)O)NC(=O)[C@H]([C@H](O)[C@@H](O)c5ccc(O)cc5)NC(=O)[C@@H]5C[C@@H](O)CN5C(=O)[C@H]([C@@H](C)O)NC4=O)cc3)cc2)cc1 [Cmpd 124, Anidulafungin] ({pTerphenylCO(4''-OnC5H11)}-[Orn(4R-OH,5R-OH)]T[Hyp][hTyr(3S-OH,4S-OH)]T[Pro(3S-OH,4S-Me)]; lactam 1-C)	+++++
CCCCCCCCCCCCCCCC[N+](C)(C)C.[Br-] [Cmpd 242, Cetrimonium Bromide (CTAB)]	+++++
COC(=O)OCOc1c2n(ccc1=O)N([C@@H]1c3ccccc3SCc3c1ccc(F)c3F)[C@@H]1COCCN1C2=O	+++++
